The following compounds are listed with their measured MIC Aztreonam + inhibitor values.
Test system: E. coli JMI 2692
PROTOCOL_NOTES: MIC, antibacterial and synergistic activity
Type: cell-based
EXPERIMENTAL_PARAMETERS: E. coli JMI 2692 (NDM-1, TEM-1, CTX-M-15); Aztreonam + inhibitor at 4 µg/mL

Previously resolved entries follow.
>  <SMILES_STR>
CCC(=O)NNC(=O)[C@@H]1CC[C@@H]2CN1C(=O)N2OS(=O)(=O)O

>  <MIC Aztreonam + inhibitor>
≤0.062 µg/mL

$$$$
>  <SMILES_STR>
O=C(NO[C@H]1CCNC1)[C@@H]1CC[C@@H]2CN1C(=O)N2OS(=O)(=O)O

>  <MIC Aztreonam + inhibitor>
0.25 µg/mL

$$$$

Here is another compound to look at.
# query: MIC Aztreonam + inhibitor of entry NCCONC(=O)[C@@H]1CC[C@@H]2CN1C(=O)N2OS(=O)(=O)O
≤0.062 µg/mL
